target: Cif (Pseudomonas aeruginosa (strain UCBPP-PA14), UniProt A0A0H2ZD27); test: Primary high throughput screen with fluorogenic substrate CMNGC; format: biochemical; details: primary screen; test compounds at 10 μM, 1 μM Cif, 25 μM CMNGC, 60 minutes;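 also: fluorescence of 200 µL reactions in 96-well plates read on a plate reader, inhibitor at tenfold molar excess over Cif enzyme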
Sequence (A0A0H2ZD27 25-319 limits assumed): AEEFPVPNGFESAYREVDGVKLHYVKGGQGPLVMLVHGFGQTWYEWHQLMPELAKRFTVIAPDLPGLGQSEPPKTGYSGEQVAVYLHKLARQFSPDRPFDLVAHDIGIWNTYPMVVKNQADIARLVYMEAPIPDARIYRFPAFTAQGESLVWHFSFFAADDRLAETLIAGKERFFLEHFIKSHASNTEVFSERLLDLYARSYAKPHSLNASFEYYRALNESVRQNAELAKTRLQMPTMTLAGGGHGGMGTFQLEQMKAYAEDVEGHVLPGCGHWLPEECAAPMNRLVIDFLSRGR
Where a name gives a salt, the structure may show the parent alone.
Parameter threshold = 40%. Response is 1 (yes) when inhibition at 10 µM meets or exceeds it, else 0 (no).

Worked set:
CCN(CC)CCOc1ccc2c(c1)C(=O)c1cc(OCCN(CC)CC)ccc1-2 = 0 (no)
COC(=O)/C=C/C(=O)OC [Dimethyl fumarate] = 0 (no)
Nc1nc(Cl)nc2c1ncn2[C@@H]1O[C@H](CO)[C@@H](O)[C@@H]1F = 1 (yes)
C[C@]12CCC(=O)C=C1C=C[C@@H]1[C@@H]2CC[C@@]2(C)[C@H]1CC[C@@]21CCC(=O)O1 = 0 (no)
C[C@]12CC[C@H]3C(=CCc4cc(O)ccc43)[C@@H]1CCC2=O = 1 (yes)
C=CC1=C(C)c2cc3[nH]c(cc4nc(cc5[nH]c(cc1n2)c(C)c5CCC(=O)O)C(CCC(=O)O)=C4C)c(C)c3C=C = 1 (yes)

Reported inhibition at 10 µM reaches at least 40% for N#C[C@@H]1C[C@@H]2C[C@@H]2N1C(=O)[C@@H](N)C12CC3CC(CC(O)(C3)C1)C2 ? 0 (no)
